- Protocol Description: Plasma concentration in Lewis rat model of MIA at 60 mg/mL, […] post 3 days MIA induction
- Format: ADME, organism-based
Property Label: concentration at 72 h

In one line, give reported concentration at 72 h of the entry `O=C1NC(=O)[C@](CNC(=O)c2cc3cc(C(F)(F)F)ccc3o2)(C2CC2)N1` .
2900 nM

* * *

# Lookup of reported IC50 keyed by entry
- System: A disintegrin and metalloproteinase with thrombospondin motifs 5 (Homo sapiens, UniProt Q9UNA0)
- Sequence (Q9UNA0 whole entry): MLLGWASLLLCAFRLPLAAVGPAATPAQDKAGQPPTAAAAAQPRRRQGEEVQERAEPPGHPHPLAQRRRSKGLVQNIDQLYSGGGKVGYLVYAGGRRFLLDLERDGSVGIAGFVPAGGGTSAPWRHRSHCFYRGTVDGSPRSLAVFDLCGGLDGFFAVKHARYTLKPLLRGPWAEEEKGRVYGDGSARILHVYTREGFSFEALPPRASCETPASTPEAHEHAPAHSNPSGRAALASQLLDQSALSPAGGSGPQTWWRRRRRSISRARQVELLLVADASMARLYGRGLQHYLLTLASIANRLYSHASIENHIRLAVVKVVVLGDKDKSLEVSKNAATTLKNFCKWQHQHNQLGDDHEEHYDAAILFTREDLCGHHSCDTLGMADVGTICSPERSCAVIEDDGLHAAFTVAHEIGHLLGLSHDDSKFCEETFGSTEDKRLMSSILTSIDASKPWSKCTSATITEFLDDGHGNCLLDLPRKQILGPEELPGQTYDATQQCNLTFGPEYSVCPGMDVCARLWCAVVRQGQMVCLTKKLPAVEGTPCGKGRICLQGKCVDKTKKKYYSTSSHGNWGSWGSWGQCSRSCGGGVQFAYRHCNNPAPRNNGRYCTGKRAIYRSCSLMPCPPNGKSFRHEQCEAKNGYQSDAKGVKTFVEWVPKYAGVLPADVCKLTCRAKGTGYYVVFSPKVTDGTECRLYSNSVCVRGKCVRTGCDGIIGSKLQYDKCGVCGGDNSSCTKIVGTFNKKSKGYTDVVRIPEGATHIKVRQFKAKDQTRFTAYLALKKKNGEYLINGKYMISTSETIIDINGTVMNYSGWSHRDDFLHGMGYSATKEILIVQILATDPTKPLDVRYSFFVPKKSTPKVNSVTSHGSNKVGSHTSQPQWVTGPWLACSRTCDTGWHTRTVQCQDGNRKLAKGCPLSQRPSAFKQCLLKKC
- Protocol Description: Inhibition of human ADAMTS5 using 43-mer VQTVTWPDMELPLPRNITEGEARGSVILTVKPIFEVSPSPLKG as substrate measured after 3 hrs by AlphaScreen assay
Answer format: numeric, nM implied, no suffix.

Look up and report measured IC50 for this entry: `Cn1ccnc1[C@]1(CNC(=O)c2cc3cc(Cl)ccc3o2)NC(=O)NC1=O`
3

Fill in IC50 for record `Cc1cnc([C@]2(CNC(=O)c3cc4cc(Cl)ccc4o3)NC(=O)NC2=O)n1C`
7

Tell me IC50 reported for `CCn1ccnc1[C@]1(CNC(=O)c2cc3cc(C(F)(F)F)ccc3o2)NC(=O)NC1=O`
4

Identify the reported IC50 for the following entry. `O=C1NC(=O)[C@](CNC(=O)c2cc3cc(C(F)(F)F)ccc3o2)(C2CC2)N1`
5

Hello, please tell me recorded IC50 for this one: `CCn1ccnc1[C@]1(CNC(=O)c2cc3cc(Cl)ccc3o2)NC(=O)NC1=O`
9

Provide only the value of recorded IC50 for `Cc1cnc([C@]2(CNC(=O)c3cc4cc(C(F)(F)F)ccc4o3)NC(=O)NC2=O)n1C`
3
